Molecular target: GSK-3β (Homo sapiens, UniProt P49841)
Sequence (P49841 whole entry): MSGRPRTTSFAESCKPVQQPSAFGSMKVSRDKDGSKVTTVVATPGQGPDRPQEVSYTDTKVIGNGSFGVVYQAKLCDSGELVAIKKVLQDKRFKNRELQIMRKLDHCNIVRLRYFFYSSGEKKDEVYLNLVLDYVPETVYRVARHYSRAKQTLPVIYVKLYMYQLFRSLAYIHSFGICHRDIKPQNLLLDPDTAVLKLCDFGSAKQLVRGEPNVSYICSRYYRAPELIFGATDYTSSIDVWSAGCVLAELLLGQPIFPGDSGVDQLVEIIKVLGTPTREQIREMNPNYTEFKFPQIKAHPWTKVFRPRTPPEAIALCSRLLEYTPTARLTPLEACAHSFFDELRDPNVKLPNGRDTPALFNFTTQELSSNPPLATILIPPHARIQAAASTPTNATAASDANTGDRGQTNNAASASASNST
Experiment: Inhibition of GSK-3β (Kinase-Glo luminescent assay)
Type: biochemical
Set-up: purchased Millipore (Millipore Ibérica SAU)
Conditions: mean of three independent determinations; 1 μM ATP
quantity_name: IC50 (nM)

* CCOC(=O)c1c2nn[nH]c(=O)c2nn1-c1ccc(OC)cc1 [5c] | 1700
* CCOC(=O)c1c2nn[nH]c(=O)c2nn1-c1ccc(Cl)cc1 [5e] | 3300
* CCOC(=O)c1c2nn[nH]c(=O)c2nn1-c1ccc(C)cc1 [5b] | 900
* CCOC(=O)c1c2nn[nH]c(=O)c2nn1-c1ccc(Br)cc1 [5f] | 1400
* CCOC(=O)c1c2nn[nH]c(=O)c2nn1-c1ccc(I)cc1 [5g] | 800
* CCOC(=O)c1c2nn[nH]c(=O)c2nn1-c1ccccc1 [5a] | 4000

###

# Lookup of reported melting point keyed by entry
quantity_name: melting point

- CCOC(=O)c1c2nn[nH]c(=O)c2nn1-c1ccccc1 [5a]: 191.5 to 193 °C
- CCOC(=O)c1c2nn[nH]c(=O)c2nn1-c1ccc(C)cc1 [5b]: 193 to 196 °C
- CCOC(=O)c1c2nn[nH]c(=O)c2nn1-c1ccc(OC)cc1 [5c]: 194 °C (dec.)
- CCOC(=O)c1c2nn[nH]c(=O)c2nn1-c1ccc(Cl)cc1 [5e]: 198 °C (dec.)
- CCOC(=O)c1c2nn[nH]c(=O)c2nn1-c1ccc(Br)cc1 [5f]: 195 °C (dec.)
- CCOC(=O)c1c2nn[nH]c(=O)c2nn1-c1ccc(I)cc1 [5g]: 198 °C (dec.)

###

Experiment: In vitro parallel artificial membrane permeability assay (PAMPA-BBB)
Settings: predictive penetration in the CNS from PAMPA-BBB Pe
quantity_name: BBB prediction

* CCOC(=O)c1c2nn[nH]c(=O)c2nn1-c1ccc(C)cc1 | CNS+/−
* CCOC(=O)c1c2nn[nH]c(=O)c2nn1-c1ccccc1 | CNS−
* CCOC(=O)c1c2nn[nH]c(=O)c2nn1-c1ccc(Cl)cc1 | CNS+/−
* CCOC(=O)c1c2nn[nH]c(=O)c2nn1-c1ccc(OC)cc1 | CNS+/−

###

Assay: In vitro parallel artificial membrane permeability assay (PAMPA-BBB)
Details: pig, PAMPA, pH 7.4
Papp at 4 h: recorded values
quantity_name: Papp at 4 h

• CCOC(=O)c1c2nn[nH]c(=O)c2nn1-c1ccc(I)cc1 [5g] = 5 ×10⁻⁶ cm/s
• CCOC(=O)c1c2nn[nH]c(=O)c2nn1-c1ccc(C)cc1 [5b] = 2.3 ×10⁻⁶ cm/s
• Cn1c(=O)c2c(ncn2C)n(C)c1=O [Caffeine, reference compound] = 1.1 ×10⁻⁶ cm/s
• CCOC(=O)c1c2nn[nH]c(=O)c2nn1-c1ccc(OC)cc1 [5c] = 1.6 ×10⁻⁶ cm/s
• CN(C)CCCN1c2ccccc2Sc2ccccc21 [Promazine, reference compound] = 8.4 ×10⁻⁶ cm/s
• CCOC(=O)c1c2nn[nH]c(=O)c2nn1-c1ccccc1 [5a] = 1.1 ×10⁻⁶ cm/s
• CCOC(=O)c1c2nn[nH]c(=O)c2nn1-c1ccc(Br)cc1 [5f] = 3.2 ×10⁻⁶ cm/s
• CNCCCN1c2ccccc2CCc2ccccc21 [Desipramine, reference compound] = 10.4 ×10⁻⁶ cm/s
• CCOC(=O)c1c2nn[nH]c(=O)c2nn1-c1ccc(Cl)cc1 [5e] = 2.9 ×10⁻⁶ cm/s
• CCn1cc(C(=O)O)c(=O)c2cc(F)c(N3CCNCC3)nc21 [Enoxacine, reference compound] = 1.1 ×10⁻⁶ cm/s
